Origin of values: paper PMC8778300

study_system: human recombinant ALDH1a1 (Homo sapiens, UniProt P00352)
Sequence (P00352 whole entry): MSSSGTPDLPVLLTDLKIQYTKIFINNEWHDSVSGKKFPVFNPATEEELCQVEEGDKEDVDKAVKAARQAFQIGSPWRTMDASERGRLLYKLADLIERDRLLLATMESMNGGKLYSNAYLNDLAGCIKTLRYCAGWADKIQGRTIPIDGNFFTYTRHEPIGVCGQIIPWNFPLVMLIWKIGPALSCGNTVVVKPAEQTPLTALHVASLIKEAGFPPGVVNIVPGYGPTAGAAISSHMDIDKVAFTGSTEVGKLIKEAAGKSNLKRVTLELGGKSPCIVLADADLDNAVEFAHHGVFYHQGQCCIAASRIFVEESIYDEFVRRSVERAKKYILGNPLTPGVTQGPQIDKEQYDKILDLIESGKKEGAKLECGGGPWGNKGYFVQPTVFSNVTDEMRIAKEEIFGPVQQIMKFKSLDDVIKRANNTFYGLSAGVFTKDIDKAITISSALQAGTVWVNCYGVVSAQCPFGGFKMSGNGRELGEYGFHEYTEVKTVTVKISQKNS
measurement_protocol: ALDH enzyme inhibition assay (ALDH1a1), diaphorase/resorufin fluorescence
Type: biochemical
run_parameters: average of at least two experiments ± standard error; 250 µM acetaldehyde, 500 µM NAD+; 20 min preincubation; NI = no inhibition up to 0.5 mM; read-out: IC50 (µM) ± SE (ALDH1a1)
// NB: equality with 0.4 µM counts as not fulfilled; only IC50 strictly below is fulfilled

structure_string	study_system	class_assignment
CCN(Cc1ccncc1)C(=S)SSC(=S)N(CC)Cc1ccncc1	human recombinant ALDH1a1 (Homo sapiens, UniProt P00352)	not fulfilled
CCN(Cc1ccc(C(F)(F)F)cc1)C(=S)SSC(=S)N(CC)Cc1ccc(C(F)(F)F)cc1	human recombinant ALDH1a1 (Homo sapiens, UniProt P00352)	not fulfilled
CCN(Cc1ccc(Cl)cc1)C(=S)SSC(=S)N(CC)Cc1ccc(Cl)cc1	human recombinant ALDH1a1 (Homo sapiens, UniProt P00352)	not fulfilled
CCN(Cc1ccc(F)cc1)C(=S)SSC(=S)N(CC)Cc1ccc(F)cc1	human recombinant ALDH1a1 (Homo sapiens, UniProt P00352)	fulfilled
CCN(Cc1ccc(OC)cc1)C(=S)SSC(=S)N(CC)Cc1ccc(OC)cc1	human recombinant ALDH1a1 (Homo sapiens, UniProt P00352)	not fulfilled
CCN(Cc1ccsc1)C(=S)SSC(=S)N(CC)Cc1ccsc1	human recombinant ALDH1a1 (Homo sapiens, UniProt P00352)	fulfilled
CCN(Cc1ccccc1F)C(=S)SSC(=S)N(CC)Cc1ccccc1F	human recombinant ALDH1a1 (Homo sapiens, UniProt P00352)	not fulfilled
CCN(Cc1cccc(F)c1)C(=S)SSC(=S)N(CC)Cc1cccc(F)c1	human recombinant ALDH1a1 (Homo sapiens, UniProt P00352)	fulfilled

###

study_system: human recombinant ALDH1a1 (Homo sapiens, UniProt P00352)
measurement_protocol: ALDH enzyme inhibition assay (ALDH1a1), diaphorase/resorufin fluorescence
Assay type: biochemical
run_parameters: relative to compound (2)
Parameter: fold reduction of ALDH1a1 inhibitory activity. Scope: all listed entries.
metric: fold reduction of ALDH1a1 inhibitory activity (fold)

structure_string	measurement
CCN(Cc1ccccc1F)C(=S)SSC(=S)N(CC)Cc1ccccc1F	3.5
CCN(Cc1cccc(F)c1)C(=S)SSC(=S)N(CC)Cc1cccc(F)c1	2
